- TARGET: Peregrin (Homo sapiens) (UniProt P55201)
- Sequence (P55201 whole entry): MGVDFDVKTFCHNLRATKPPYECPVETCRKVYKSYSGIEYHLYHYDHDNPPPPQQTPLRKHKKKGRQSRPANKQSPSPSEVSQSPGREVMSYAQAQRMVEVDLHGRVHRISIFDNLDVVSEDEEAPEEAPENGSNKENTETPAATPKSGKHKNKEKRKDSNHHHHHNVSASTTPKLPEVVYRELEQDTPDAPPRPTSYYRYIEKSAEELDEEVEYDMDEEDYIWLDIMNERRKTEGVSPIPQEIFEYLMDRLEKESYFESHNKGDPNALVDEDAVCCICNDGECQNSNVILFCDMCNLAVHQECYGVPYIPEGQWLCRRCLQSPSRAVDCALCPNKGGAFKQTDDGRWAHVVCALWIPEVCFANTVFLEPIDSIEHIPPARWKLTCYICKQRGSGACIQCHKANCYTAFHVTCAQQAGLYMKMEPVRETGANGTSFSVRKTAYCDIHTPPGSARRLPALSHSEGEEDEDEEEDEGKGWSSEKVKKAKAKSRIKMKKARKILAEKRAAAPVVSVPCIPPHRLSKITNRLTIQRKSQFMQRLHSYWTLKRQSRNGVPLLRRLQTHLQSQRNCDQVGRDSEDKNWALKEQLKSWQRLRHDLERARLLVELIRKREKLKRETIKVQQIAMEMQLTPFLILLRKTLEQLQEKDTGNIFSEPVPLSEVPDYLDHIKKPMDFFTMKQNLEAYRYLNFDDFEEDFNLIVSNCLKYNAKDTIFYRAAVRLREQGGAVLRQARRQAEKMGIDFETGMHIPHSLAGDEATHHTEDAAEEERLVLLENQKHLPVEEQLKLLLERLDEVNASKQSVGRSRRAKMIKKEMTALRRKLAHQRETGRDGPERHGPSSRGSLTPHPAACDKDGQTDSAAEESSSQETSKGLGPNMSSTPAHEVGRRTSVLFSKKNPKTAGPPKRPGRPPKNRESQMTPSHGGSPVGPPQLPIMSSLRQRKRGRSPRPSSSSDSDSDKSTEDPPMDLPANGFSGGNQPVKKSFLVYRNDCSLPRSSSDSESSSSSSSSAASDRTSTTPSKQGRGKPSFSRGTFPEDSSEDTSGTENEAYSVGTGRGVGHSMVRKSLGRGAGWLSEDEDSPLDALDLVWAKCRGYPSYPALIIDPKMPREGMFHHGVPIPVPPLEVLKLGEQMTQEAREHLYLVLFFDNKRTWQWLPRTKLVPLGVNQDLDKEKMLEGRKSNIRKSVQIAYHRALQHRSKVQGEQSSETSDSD
- ASSAY_SETUP: Compound concentration 20.0 uM
Non-standard residues stand in square brackets, D forms with d. Residues, ends and D or L forms follow the SMILES beside them. *: point of attachment. Benzoyl(4-tBu) = CC(C)(C)c1ccc(C(=O)*)cc1; Lys(Et2) = CCN(CC)CCCC[C@H](N)C(=O)O
Classification field: True = ΔTm at or over 1 °C; False = ΔTm under 1 °C.

Determine whether measured ΔTm meets or exceeds 1 °C for CCN(CC)CCCC[C@H](NC(=O)[C@H](CC(C)C)NC(=O)[C@H](C)NC(=O)[C@H](Cc1ccccc1)NC(=O)c1ccc(C(C)(C)C)cc1)C(=O)N[C@@H](CO)C(=O)OC ({Benzoyl(4-tBu)}-FAL[Lys(Et2)]S-OMe)
False

###

- TARGET: Fibroblast growth factor receptor 2 (Homo sapiens)
- ASSAY_SETUP: Compound concentration 20.0 uM
- Description: Thermal Shift Assay. Domain: start/stop: T457-E768
Classification field: rule met = ΔTm at or over 0.2 °C; rule not met = ΔTm under 0.2 °C.

Example entries and their recorded answers appear below.
COMPOUND: Cc1cc(/N=N/c2ccc3c(c2)CCC(=O)N3)c(N)cc1O
ASSIGNED_LABEL: rule not met
--
COMPOUND: CN(C)CCCCC(=O)Nc1ccc(NC(=S)NC(=O)c2ccc(C(C)(C)C)cc2)cc1
ASSIGNED_LABEL: rule not met
--
COMPOUND: O=c1[nH]ccc2cc(F)c(NS(=O)(=O)c3ccc(N4CC[C@@H](O)C4)s3)cc12
ASSIGNED_LABEL: rule met

Determine whether measured ΔTm meets or exceeds 0.2 °C for `Cn1c(OC[C@H]2CC[C@H](C(F)(F)F)CC2)nn2c(C3CCOCC3)ncc2c1=O`
rule not met

Determine whether measured ΔTm meets or exceeds 0.2 °C for `Cc1ccc(F)c2cc(C(=O)N[C@@H]3CCC[C@H](N4CC[C@H](N(C)S(C)(=O)=O)C4)C3)[nH]c12`
rule not met

Determine whether measured ΔTm meets or exceeds 0.2 °C for `O=C(Nc1ccc2[nH]nc(-c3ccncc3)c2c1)[C@@H]1CCN(CC(=O)N2CCN(c3ccc(-c4ncccn4)cc3)CC2)C1`
rule met

Determine whether measured ΔTm meets or exceeds 0.2 °C for `O=c1[nH][nH]c(=O)c2cc(OCc3ccccc3F)ccc12`
rule met

Determine whether measured ΔTm meets or exceeds 0.2 °C for `Cc1cc(C)c(CNC(=O)c2cc(-c3ccc(N4CCN(C)CC4)nc3)cc3c2c(C)cn3C(C)C)c(=O)[nH]1`
rule met

Determine whether measured ΔTm meets or exceeds 0.2 °C for `Nc1c[nH]c(=O)c2cc(-c3ccccc3)sc12`
rule met

Determine whether measured ΔTm meets or exceeds 0.2 °C for `CCc1c(C#N)c(S[C@@H](C(N)=O)c2ccccc2)nc(N(C)C)c1C#N`
rule not met

###

Entries annotated with measured ΔTm
- TARGET: Fibroblast growth factor receptor 2 (Homo sapiens) (UniProt P21802)
- Sequence (P21802 22-821 limits assumed): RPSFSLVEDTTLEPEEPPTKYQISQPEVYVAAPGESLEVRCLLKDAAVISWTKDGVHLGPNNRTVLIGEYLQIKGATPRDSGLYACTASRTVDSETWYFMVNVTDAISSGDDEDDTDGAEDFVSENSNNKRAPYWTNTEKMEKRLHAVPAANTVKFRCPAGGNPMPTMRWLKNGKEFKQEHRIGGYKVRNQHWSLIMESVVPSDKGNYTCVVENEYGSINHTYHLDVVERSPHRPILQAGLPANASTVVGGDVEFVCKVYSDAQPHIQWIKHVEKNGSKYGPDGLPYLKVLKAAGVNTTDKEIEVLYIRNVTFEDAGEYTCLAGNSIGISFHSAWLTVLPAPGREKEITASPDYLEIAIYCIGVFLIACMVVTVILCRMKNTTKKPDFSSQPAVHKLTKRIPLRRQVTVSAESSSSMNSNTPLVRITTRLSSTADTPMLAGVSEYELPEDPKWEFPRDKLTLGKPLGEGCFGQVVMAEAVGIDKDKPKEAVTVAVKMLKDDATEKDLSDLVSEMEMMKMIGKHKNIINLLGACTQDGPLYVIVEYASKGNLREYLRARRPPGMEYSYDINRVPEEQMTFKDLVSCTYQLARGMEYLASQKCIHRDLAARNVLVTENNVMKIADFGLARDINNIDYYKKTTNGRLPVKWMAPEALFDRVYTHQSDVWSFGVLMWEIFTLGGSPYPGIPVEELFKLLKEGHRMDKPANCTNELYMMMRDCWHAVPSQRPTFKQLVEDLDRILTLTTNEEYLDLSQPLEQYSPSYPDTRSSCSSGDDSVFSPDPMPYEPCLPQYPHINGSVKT
- ASSAY_SETUP: Compound concentration 20.0 uM
The reply should contain only the number, in °C.

Observe how each entry below is paired with its result.
COMPOUND: N[C@H](C(=O)O)[C@H](OCc1cccc(NC(=O)c2ccc(C(F)(F)F)cc2)c1)C(=O)O
UNIT_ABBREV: °C
ENDPOINT_VALUE: -0.22
//
COMPOUND: COc1ccc(-c2c(-c3ccc(C#N)c(F)c3)nc(N3CCC(N)CC3)n(C)c2=O)cc1F
UNIT_ABBREV: °C
ENDPOINT_VALUE: 0.16
//
COMPOUND: N=C(N)N/N=C/c1cccc(Cl)c1Cl
UNIT_ABBREV: °C
ENDPOINT_VALUE: 0.87
//
COMPOUND: O=C1Nc2ccccc2C2(CCN(CC(Cc3ccccc3)Nc3nc4ccc(F)cc4s3)CC2)N1 (stereo not drawn)
UNIT_ABBREV: °C
ENDPOINT_VALUE: 2.21
//
COMPOUND: CC(C)N(C(=O)c1cc(F)ccc1Oc1cncnc1N1CC2(CCN(C[C@H]3CC[C@H](NS(C)(=O)=O)CC3)CC2)C1)C(C)C
UNIT_ABBREV: °C
ENDPOINT_VALUE: -0.47

I am curious: what ΔTm value has been reported for `CCOc1ccc(Cc2cc([C@]34OC[C@](CO)(O3)[C@@H](O)[C@H](O)[C@H]4O)ccc2Cl)cc1` ?
0.47
